Experiment: Solubility of ziprasidone hydrochloride monohydrate in excipients (Table 2)
Format: physicochemical
Settings: Tween 20, organic solvent or mixture
Where a name gives a salt, the structure may show the parent alone.
Readout Kind: solubility (µg/mL)

1. O=C1Cc2cc(CCN3CCN(c4nsc5ccccc45)CC3)c(Cl)cc2N1 [Ziprasidone HCl monohydrate, ziprasidone hydrochloride monohydrate] ... 3000

* * *

Experiment: Solubility of ziprasidone hydrochloride monohydrate in excipients (Table 2)
Format: physicochemical
Details: 0.1 N HCl solution, simulated gastric fluid
Counter-ions that a name gives are not always drawn.
Readout Kind: solubility (µg/mL)

1) O=C1Cc2cc(CCN3CCN(c4nsc5ccccc45)CC3)c(Cl)cc2N1 [Ziprasidone HCl monohydrate, ziprasidone hydrochloride monohydrate] ... 500

* * *

Experiment: Solubility of ziprasidone hydrochloride monohydrate in excipients (Table 2)
Format: physicochemical
Settings: 5% caprolactam in water, aqueous with cosolvent or surfactant or cyclodextrin; 5% caprolactam in solution in water
Counter-ions that a name gives are not always drawn.
Readout Kind: solubility (µg/mL)

1. O=C1Cc2cc(CCN3CCN(c4nsc5ccccc45)CC3)c(Cl)cc2N1 [Ziprasidone HCl monohydrate, ziprasidone hydrochloride monohydrate] ... 300

* * *

Assay: Solubility of ziprasidone hydrochloride monohydrate in excipients (Table 2)
Type: physicochemical
Settings: PEG 400, organic solvent or mixture
Structures can show the parent of a compound that is named as a salt.
Readout Kind: solubility

1. O=C1Cc2cc(CCN3CCN(c4nsc5ccccc45)CC3)c(Cl)cc2N1 [Ziprasidone HCl monohydrate, ziprasidone hydrochloride monohydrate] ... 2500 µg/mL

* * *

Experiment: Solubility of ziprasidone hydrochloride monohydrate in excipients (Table 2)
Assay type: physicochemical
Conditions: Labrofac (Capric triglyceride PEG-4 ester), oil or lipid
Structures can show the parent of a compound that is named as a salt.
Readout Kind: solubility (µg/mL)

1. O=C1Cc2cc(CCN3CCN(c4nsc5ccccc45)CC3)c(Cl)cc2N1 [Ziprasidone HCl monohydrate, ziprasidone hydrochloride monohydrate] ... 900

* * *

Assay: Solubility of ziprasidone hydrochloride monohydrate in excipients (Table 2)
Assay type: physicochemical
Conditions: Benzyl benzoate, organic solvent or mixture
Procedure: Solubility in various excipients that are frequently used to improve solubility was also tested and the results thereof are in Table 2 below.
Where a name gives a salt, the structure may show the parent alone.
Readout Kind: solubility (µg/mL)

1. O=C1Cc2cc(CCN3CCN(c4nsc5ccccc45)CC3)c(Cl)cc2N1 [Ziprasidone HCl monohydrate, ziprasidone hydrochloride monohydrate] ... 300

* * *

Assay: Solubility of ziprasidone hydrochloride monohydrate in excipients (Table 2)
Type: physicochemical
Conditions: Glacial acetic acid, organic solvent or mixture
Where a name gives a salt, the structure may show the parent alone.
Readout Kind: solubility (µg/mL)

1. O=C1Cc2cc(CCN3CCN(c4nsc5ccccc45)CC3)c(Cl)cc2N1 [Ziprasidone HCl monohydrate, ziprasidone hydrochloride monohydrate] ... 2800

* * *

Assay: Solubility of ziprasidone hydrochloride monohydrate in excipients (Table 2)
Format: physicochemical
Conditions: PEG 6000, organic solvent or mixture
Where a name gives a salt, the structure may show the parent alone.
Readout Kind: solubility (µg/mL)

1. O=C1Cc2cc(CCN3CCN(c4nsc5ccccc45)CC3)c(Cl)cc2N1 [Ziprasidone HCl monohydrate, ziprasidone hydrochloride monohydrate] ... 2500

* * *

Test: Solubility of ziprasidone hydrochloride monohydrate in excipients (Table 2)
Assay type: physicochemical
Details: Glycerol, organic solvent or mixture
Where a name gives a salt, the structure may show the parent alone.
Readout Kind: solubility (µg/mL)

1. O=C1Cc2cc(CCN3CCN(c4nsc5ccccc45)CC3)c(Cl)cc2N1 [Ziprasidone HCl monohydrate, ziprasidone hydrochloride monohydrate] ... 1250

* * *

Assay: Solubility of ziprasidone hydrochloride monohydrate in excipients (Table 2)
Assay type: physicochemical
Conditions: Peceol (glycerol monooleate 40), oil or lipid
Structures can show the parent of a compound that is named as a salt.
Readout Kind: solubility (µg/mL)

1) O=C1Cc2cc(CCN3CCN(c4nsc5ccccc45)CC3)c(Cl)cc2N1 [Ziprasidone HCl monohydrate, ziprasidone hydrochloride monohydrate] ... 1000

* * *

Test: Solubility of ziprasidone hydrochloride monohydrate in excipients (Table 2)
Format: physicochemical
Settings: Benzyl alcohol, organic solvent or mixture
Where a name gives a salt, the structure may show the parent alone.
Readout Kind: solubility (µg/mL)

1. O=C1Cc2cc(CCN3CCN(c4nsc5ccccc45)CC3)c(Cl)cc2N1 [Ziprasidone HCl monohydrate, ziprasidone hydrochloride monohydrate] ... 2900

* * *

Assay: Solubility of ziprasidone hydrochloride monohydrate in excipients (Table 2)
Assay type: physicochemical
Conditions: 20% Lactic acid in PEG 400, organic solvent or mixture
Structures can show the parent of a compound that is named as a salt.
Readout Kind: solubility

1. O=C1Cc2cc(CCN3CCN(c4nsc5ccccc45)CC3)c(Cl)cc2N1 [Ziprasidone HCl monohydrate, ziprasidone hydrochloride monohydrate] ... 1300 µg/mL

* * *

Experiment: Solubility of ziprasidone hydrochloride monohydrate in excipients (Table 2)
Type: physicochemical
Conditions: aqueous buffer; Phosphate buffer pH 6.8 (without SLS)
Counter-ions that a name gives are not always drawn.
Readout Kind: solubility

1. O=C1Cc2cc(CCN3CCN(c4nsc5ccccc45)CC3)c(Cl)cc2N1 [Ziprasidone HCl monohydrate, ziprasidone hydrochloride monohydrate] ... < 10 µg/mL

* * *

Assay: Solubility of ziprasidone hydrochloride monohydrate in excipients (Table 2)
Format: physicochemical
Settings: N-methyl 2-pyrrolidone, organic solvent or mixture
Description: Solubility in various excipients that are frequently used to improve solubility was also tested and the results thereof are in Table 2 below.
Counter-ions that a name gives are not always drawn.
Readout Kind: solubility

1. O=C1Cc2cc(CCN3CCN(c4nsc5ccccc45)CC3)c(Cl)cc2N1 [Ziprasidone HCl monohydrate, ziprasidone hydrochloride monohydrate] ... 10000 µg/mL

* * *

Test: Solubility of ziprasidone hydrochloride monohydrate in excipients (Table 2)
Type: physicochemical
Details: Tween 80, organic solvent or mixture
Counter-ions that a name gives are not always drawn.
Readout Kind: solubility (mg/mL)

1) O=C1Cc2cc(CCN3CCN(c4nsc5ccccc45)CC3)c(Cl)cc2N1 [Ziprasidone HCl monohydrate, ziprasidone hydrochloride monohydrate] ... 2.1

* * *

Experiment: Solubility of ziprasidone hydrochloride monohydrate in excipients (Table 2)
Assay type: physicochemical
Settings: 20% Lutrol in TPGS, organic solvent or mixture
Counter-ions that a name gives are not always drawn.
Readout Kind: solubility (µg/mL)

1) O=C1Cc2cc(CCN3CCN(c4nsc5ccccc45)CC3)c(Cl)cc2N1 [Ziprasidone HCl monohydrate, ziprasidone hydrochloride monohydrate] ... 1000

* * *

Experiment: Solubility of ziprasidone hydrochloride monohydrate in excipients (Table 2)
Assay type: physicochemical
Settings: Lactic acid (85% strength), organic solvent or mixture
Counter-ions that a name gives are not always drawn.
Readout Kind: solubility (µg/mL)

1. O=C1Cc2cc(CCN3CCN(c4nsc5ccccc45)CC3)c(Cl)cc2N1 [Ziprasidone HCl monohydrate, ziprasidone hydrochloride monohydrate] ... 10000

* * *

Experiment: Solubility of ziprasidone hydrochloride monohydrate in excipients (Table 2)
Type: physicochemical
Details: Ethanol, organic solvent or mixture
Structures can show the parent of a compound that is named as a salt.
Readout Kind: solubility (µg/mL)

1) O=C1Cc2cc(CCN3CCN(c4nsc5ccccc45)CC3)c(Cl)cc2N1 [Ziprasidone HCl monohydrate, ziprasidone hydrochloride monohydrate] ... 400
